From: patent US20250270315A1

# system: T1, human SIRPα v1 ECD recombinant protein (tag not given) (human, UniProt P78324 31-373)
# T1 construct: extracellular domain; also called biotin labeled soluble human SIRPα v1 ECD recombinant protein; ELISA microplate coated human SIRPα v1 ECD
# T1 sequence (P78324 31-373): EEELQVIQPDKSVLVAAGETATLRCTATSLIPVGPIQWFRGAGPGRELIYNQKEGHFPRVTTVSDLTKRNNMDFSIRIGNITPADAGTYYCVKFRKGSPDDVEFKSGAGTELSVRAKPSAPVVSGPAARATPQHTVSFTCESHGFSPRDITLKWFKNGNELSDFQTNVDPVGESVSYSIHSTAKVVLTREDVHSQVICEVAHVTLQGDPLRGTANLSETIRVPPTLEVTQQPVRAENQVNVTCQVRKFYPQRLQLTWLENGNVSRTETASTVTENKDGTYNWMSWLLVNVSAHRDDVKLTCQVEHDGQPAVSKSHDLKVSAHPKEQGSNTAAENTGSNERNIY
# measurement.description: competitive ELISA, mFc-CD47 ECD on coated SIRPα v1 ECD
endpoint.name: pIC50
Quick note: pIC50 values are minus log10 of concentrations in mol/L.

Item 042c (antibody, V domains shown, also called chimeric antibody 042c) VH: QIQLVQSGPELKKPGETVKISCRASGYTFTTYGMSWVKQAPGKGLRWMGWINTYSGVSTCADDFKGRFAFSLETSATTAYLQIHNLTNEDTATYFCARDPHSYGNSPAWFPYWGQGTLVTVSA VL: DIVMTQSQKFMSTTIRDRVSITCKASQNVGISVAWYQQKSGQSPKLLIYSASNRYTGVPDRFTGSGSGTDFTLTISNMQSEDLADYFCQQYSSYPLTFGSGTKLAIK has what recorded pIC50?
8.44

Lookup 059c (antibody, V domains shown, also called chimeric antibody 059c) VH: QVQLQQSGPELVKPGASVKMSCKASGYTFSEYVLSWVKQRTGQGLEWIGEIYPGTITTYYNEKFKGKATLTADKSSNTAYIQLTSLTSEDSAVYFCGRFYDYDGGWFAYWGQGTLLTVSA VL: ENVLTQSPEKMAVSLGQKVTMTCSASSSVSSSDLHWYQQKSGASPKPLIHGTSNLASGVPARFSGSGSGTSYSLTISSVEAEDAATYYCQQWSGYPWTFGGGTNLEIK
8.58
